molecular target: T1, human Galectin-3 (LGALS3) (human, UniProt P17931 2-250, limits assumed); assay: ELISA on human Gal-3 (huGal3), one OD450 value per clone
T1 construct: also called human Gal-3; Gal-3
T1 sequence (P17931 2-250 limits assumed): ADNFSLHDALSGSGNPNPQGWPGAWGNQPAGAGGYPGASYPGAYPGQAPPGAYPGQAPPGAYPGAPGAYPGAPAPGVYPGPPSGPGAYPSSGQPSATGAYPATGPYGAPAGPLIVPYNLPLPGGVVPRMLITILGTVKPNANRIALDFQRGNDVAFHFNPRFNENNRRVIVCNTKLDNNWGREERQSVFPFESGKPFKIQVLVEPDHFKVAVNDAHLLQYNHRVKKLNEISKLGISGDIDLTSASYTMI

binder	OD450
mAb 20F08 (antibody, V domains shown, Hybridoma antibody from AlivaMab Mouse; Human HC (chimeric IgH with mouse CH2 and CH3) and murine LC; also called clone 20F08) VH: EVQLVESGGGLVKPGGSLRLSCAASGFIFSNYNINWVRQAPGKGLEWVSCVSRSNYTYYTDSVKGRFTISRDNAKKSLYLQMNSLRAEDTAVYYCARDCGTYGVFDYWGQGTLVTVSS VL: ETTVTQSPASLSMAIGEKVTIRCITSTDIDDDMNWYQQKPGEPPKLLISEGNILRPGVPSRFSSSGYGTDFVFAIENMLSEDVADYYCLQSDNLPYTFGGGTKLELK	0.523
mAb 39F02 (antibody, V domains shown, Hybridoma antibody from AlivaMab Mouse; Human HC (chimeric IgH with mouse CH2 and CH3) and murine LC; also called clone 39F02) VH: EVQLLESGGGLVQPGGSLRLSCAASGFTLSNYAMSWVRQAPGKGLEWVSAISGSGGGTYNADSVKGRFTISRDNSKNTLYLQMNSLRAEDTAVYYCAKEAWISYFDYWGQGTLVTVSS VL: DIVMSQSPSSLAVSVGEKVTLSCKSSQSLLYGDDQKNYLAWYQQKPGQSPKLLLYWASTWESGVPDRFTGSGSGTDFTLTISSVKAADLAVYYCQQYYSYPWTFGGGTKLEIK	0.502
mAb 38E05 (antibody, V domains shown, Hybridoma antibody from AlivaMab Mouse; Human HC (chimeric IgH with mouse CH2 and CH3) and murine LC; also called clone 38E05) VH: EVQLLESGGGLVQPGGSLRLSCAASGFTLSNYAMSWVRQAPGKGLEWVSAISGSGGGTYNADSVKGRFTISRDNSKNTLYLQMNSLRAEDTAVYYCAKEAWISYFDYWGQGTLVTVSS VL: DIVMSQSPSSLAVSVGEKVTLSCKSSQSLLYGDDQKNYLAWYQQKPGQSPKLLLYWASTWESGVPDRFTGSGSGTDFTLTISSVKAADLAVYYCQQYYSYPWTFGGGTKLEIK	0.86
mAb 12H07 (antibody, V domains shown, Hybridoma antibody from AlivaMab Mouse; Human HC (chimeric IgH with mouse CH2 and CH3) and murine LC; also called 12H7; clone 12H07) VH: EVQLVESGGGLVKPGGSLRLSCAASGFIFSNYNINWVRQAPGKGLEWVSCVSRSNYTYYTDSVKGRFTISRDNAKKSLYLQMNSLRAEDTAVYYCARDCGTYGVFDYWGQGTLVTVSS VL: ETTVTQSPASLSMAIGEKVTIRCITSTDIDDDMNWYQQKPGEPPKLLISEGNILRPGVPSRFSSSGYGTDFVFAIENMLSEDVADYYCLQSDNLPYTFGGGTKLELK	1.4

Taken from patent US20240026009A1.
